- study target: T1, FBF-2 RBD+CT Loop6A (Caenorhabditis elegans, UniProt Q09312 164-632, E592A;D594A;E597A;E599A;E604A;E605A)
- T1 sequence: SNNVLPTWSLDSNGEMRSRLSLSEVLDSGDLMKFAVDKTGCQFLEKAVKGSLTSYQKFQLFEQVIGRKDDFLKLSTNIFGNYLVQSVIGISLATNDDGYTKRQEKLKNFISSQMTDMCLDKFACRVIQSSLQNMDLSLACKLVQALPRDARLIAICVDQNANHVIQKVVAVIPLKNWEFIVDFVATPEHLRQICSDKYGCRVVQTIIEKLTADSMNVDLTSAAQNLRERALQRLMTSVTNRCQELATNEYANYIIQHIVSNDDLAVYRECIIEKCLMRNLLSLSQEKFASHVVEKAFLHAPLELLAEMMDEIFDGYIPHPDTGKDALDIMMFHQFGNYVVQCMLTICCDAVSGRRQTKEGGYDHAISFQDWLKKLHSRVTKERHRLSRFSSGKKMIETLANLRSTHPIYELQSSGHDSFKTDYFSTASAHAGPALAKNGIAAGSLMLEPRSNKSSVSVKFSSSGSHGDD
- protocol notes: EMSA; no LST-1; EMSA: FBF-2 in 20 mM HEPES pH 7.4, 150 mM NaCl, 0.5 mM TCEP mixed 1:1 with 5 nM final RNA in 10 mM HEPES pH 7.4, 0.01% Tween 20, 0.1 mg/ml BSA, 0.1 mg/ml yeast
- measurement parameters: protein: recombinant; tags: none (His6-SUMO removed with Ulp1); label: 3'-Cy5
measure name: pKd
When answering, recall that pKd equals minus log10 of the concentration in mol/L, and write that number alone.

Could you tell me which pKd is on file for AUCAUGUGCCAUAC (ssRNA) [gld-1 FBEa RNA (EMSA)] ?
7.00
